Attribution: patent US20120232062A1

pEC50 overview
system: HCV genotype 1b; assay: HCV 1b replicon luciferase assay; assay type: cell-based; details: Hepatitis C virus, Huh-7, 48 h, Table 1; Huh7 HCV 1b replicon, luciferase reporter, 48 hours; read-out: 1b EC50
Field pEC50 (float): negative decimal logarithm of the concentration in molar.

{"columns": ["molecule", "tested_system", "experimental_endpoint", "value_observed"],
 "data": [
  ["Clc1ccc(Cn2nc(COCCN3CCCC3)c3ccc(N4CCCCCCC4)nc32)cc1 [compound 1203]", "HCV genotype 1b", "pEC50", 5.48],
  ["Cn1nc(C(=O)NC2CCN(C(=O)C3CCCCC3)CC2)c2ccc(N3CCCCCC3)nc21 [compound 1030]", "HCV genotype 1b", "pEC50", 5.32]
]}

q: Report measured pEC50; entry is CC1CCC(Oc2ccc3c(C(=O)NC4CCNCC4)nn(C)c3n2)CC1 (stereo not drawn) [compound 879]
a: 5.41

q: Supply reported pEC50 belonging to this molecule: Cn1nc(C(=O)NC2CCN(Cc3ccc(-c4ccccc4)cc3)CC2)c2ccc(OCc3ccc(-c4ccccc4)cc3)nc21 [compound 973]
a: 5.27
